System: 171881-019-R-J1-PDC tumor spheroids, viability
assay remarks: Anticancer human tumor 171881-019-R-J1-PDC patient-derived invasive breast carcinoma cell line growth inhibition [GQUAD]
assay context: second compound 0.316 µM; first compound 10 µM; stronger effect = lower value; spheroids with HUVEC and MSC
I'd be grateful if you could share measured viability, T/C for these entries.
One number for each entry, in %.

Would you mind listing viability, T/C for each of the following molecules?
1. COc1cc(C2c3cc4c(cc3C(OC3OC5COC(C)OC5C(O)C3O)C3COC(=O)C23)OCO4)cc(OC)c1O (stereo not given) + CN(C)c1ccc(Nc2c3ccc(NC(=O)CCN4CCCC4)cc3nc3cc(NC(=O)CCN4CCCC4)ccc23)cc1
2. CC1COCCN1c1cc(C2(S(C)(=N)=O)CC2)nc(-c2ccnc3[nH]ccc23)n1 (stereo not given) + Cc1[nH]c2ccc(F)cc2c1-c1nc2c3cccnc3c3ncccc3c2[nH]1
3. O=c1[nH]cc(F)c(=O)[nH]1 + CN(C)c1ccc(Nc2c3ccc(NC(=O)CCN4CCCC4)cc3nc3cc(NC(=O)CCN4CCCC4)ccc23)cc1

1: 30.3; 2: 10.2; 3: 49.9

Value sought for every listed molecule: viability, T/C.
1. CC(=O)O[C@H]1C(=O)[C@@]2(C)[C@H]([C@H](OC(=O)c3ccccc3)[C@]3(O)C[C@H](OC(=O)[C@H](O)[C@@H](NC(=O)c4ccccc4)c4ccccc4)C(C)=C1C3(C)C)[C@]1(OC(C)=O)CO[C@@H]1C[C@@H]2O + CN(C)c1ccc(Nc2c3ccc(NC(=O)CCN4CCCC4)cc3nc3cc(NC(=O)CCN4CCCC4)ccc23)cc1
2. CC(C)(O)C1CCC(Nc2ccc3ncc(-c4cccc(C(F)(F)F)c4)n3n2)CC1 (stereo not given) + Cc1[nH]c2ccc(F)cc2c1-c1nc2c3cccnc3c3ncccc3c2[nH]1

15.7
25.4

Hi, could you look up viability, T/C for each item in my list?
1. CC(C)n1c(=O)n(C)c2cnc3cc(F)c(-c4ccc(OCCCN5CCCCC5)nc4)cc3c21 + Cc1[nH]c2ccc(F)cc2c1-c1nc2c3cccnc3c3ncccc3c2[nH]1
2. CC1COCCN1c1cc(C2(S(C)(=N)=O)CC2)nc(-c2ccnc3[nH]ccc23)n1 (stereo not given) + Cc1cnc(CNC(=O)c2c(=O)c3ccc(N4CCCN(C)CC4)nc3n3c2sc2ccccc23)cn1
3. C#Cc1c(F)ccc2cc(O)cc(-c3ncc4c(N5CC6CCC(C5)N6)nc(OCC56CCCN5CC(F)C6)nc4c3F)c12 (stereo not given) + Cc1[nH]c2ccc(F)cc2c1-c1nc2c3cccnc3c3ncccc3c2[nH]1
4. CC1COCCN1c1cc(-c2ccnn2C)c2ccnc(-c3ccn[nH]3)c2n1 (stereo not given) + Cc1[nH]c2ccc(F)cc2c1-c1nc2c3cccnc3c3ncccc3c2[nH]1
5. COc1ncnc(C2CC2)c1-c1ncc2cnn(Cc3ccc(-c4nc(C(F)(F)F)cn4C(C)C)cc3)c2n1 + Cc1cnc(CNC(=O)c2c(=O)c3ccc(N4CCCN(C)CC4)nc3n3c2sc2ccccc23)cn1

1: 21.9; 2: 11.2; 3: 4.2; 4: 5.85; 5: 63.3

----------
System: 171881-019-R-J1-PDC tumor spheroids, viability
assay remarks: Anticancer human tumor 171881-019-R-J1-PDC cell line growth inhibition [GQUAD];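 note: spheroids exposed to compounds for 7 days; 100% = DMSO vehicle control viability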
assay context: second compound 0.1 µM; first compound 3.16 µM; stronger effect = lower value; spheroids with HUVEC and MSC
Source text: DNA G-quadruplex Stabilizer Agents in Combinations in Complex Spheroids A high-throughput screen of multi-cell type tumor spheroids was designed to identify active combinations of DNA G-quadruplex stabilizer agents and targeted small molecules. […] Compounds. […] If the clinical Cmax for an agent had not been determined, the highest concentration tested was 10 microM. […]
Provide the recorded viability, T/C for the entries that follow.
Answers are plain numbers, in %.

The examples below pair each entry with its known result.
C#Cc1c(F)ccc2cc(O)cc(-c3ncc4c(N5CC6CCC(C5)N6)nc(OCC56CCCN5CC(F)C6)nc4c3F)c12 (stereo not given) + CN(C)c1ccc(Nc2c3ccc(NC(=O)CCN4CCCC4)cc3nc3cc(NC(=O)CCN4CCCC4)ccc23)cc1 :: 23.7
C=CCn1c(=O)c2cnc(Nc3ccc(N4CCN(C)CC4)cc3)nc2n1-c1cccc(C(C)(C)O)n1 + Cc1[nH]c2ccc(F)cc2c1-c1nc2c3cccnc3c3ncccc3c2[nH]1 :: 20.5
COc1cc(C2c3cc4c(cc3C(OC3OC5COC(C)OC5C(O)C3O)C3COC(=O)C23)OCO4)cc(OC)c1O (stereo not given) + Cc1cnc(CNC(=O)c2c(=O)c3ccc(N4CCCN(C)CC4)nc3n3c2sc2ccccc23)cn1 :: 30.6
O=C(c1cc(Cc2n[nH]c(=O)c3ccccc23)ccc1F)N1CCN(C(=O)C2CC2)CC1 + CN(C)c1ccc(Nc2c3ccc(NC(=O)CCN4CCCC4)cc3nc3cc(NC(=O)CCN4CCCC4)ccc23)cc1 :: 91.7

Consider the additional compound presented here.
Given the compound CCCS(=O)(=O)Nc1ccc(F)c(C(=O)c2c[nH]c3ncc(-c4ccc(Cl)cc4)cc23)c1F + CN(C)c1ccc(Nc2c3ccc(NC(=O)CCN4CCCC4)cc3nc3cc(NC(=O)CCN4CCCC4)ccc23)cc1 , what is its reported viability, T/C?
94.5

----------
Tested on: 171881-019-R-J1-PDC tumor spheroids, viability
assay remarks: Anticancer human tumor 171881-019-R-J1-PDC cell line growth inhibition [GQUAD]; active = viability on the fitted dose curve at most 10% of control; inactive = the rest;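 note: spheroids exposed to compounds for 7 days; 100% = DMSO vehicle control viability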
assay context: second compound 10 µM; first compound 10 µM; spheroids with HUVEC and MSC
Outcome (select one): active, inactive

Look over these answered cases.
CC(C)(O)C1CCC(Nc2ccc3ncc(-c4cccc(C(F)(F)F)c4)n3n2)CC1 (stereo not drawn) + CN(C)c1ccc(Nc2c3ccc(NC(=O)CCN4CCCC4)cc3nc3cc(NC(=O)CCN4CCCC4)ccc23)cc1 :: active
COc1ncnc(C2CC2)c1-c1ncc2cnn(Cc3ccc(-c4nc(C(F)(F)F)cn4C(C)C)cc3)c2n1 + Cc1cnc(CNC(=O)c2c(=O)c3ccc(N4CCCN(C)CC4)nc3n3c2sc2ccccc23)cn1 :: inactive

As a next step, examine the molecule that follows.
Entry COc1ccc([C@@H](O)c2cc(-c3ncnc4cc(N5CCOCC5)ccc34)c(F)cc2Cl)nn1 + Cc1cnc(CNC(=O)c2c(=O)c3ccc(N4CCCN(C)CC4)nc3n3c2sc2ccccc23)cn1 : call = ?
active

----------
System: 171881-019-R-J1-PDC tumor spheroids, viability
assay remarks: Anticancer human tumor 171881-019-R-J1-PDC cell line growth inhibition [GQUAD]; active = viability on the fitted dose curve at most 10% of control; inactive = the rest;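 note: spheroids exposed to compounds for 7 days; 100% = DMSO vehicle control viability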
assay context: second compound 1 µM; first compound 3.16 µM; spheroids with HUVEC and MSC
I would appreciate it if you answered using one of these outcomes: t (active), f (inactive)

Previously resolved entries follow.
COc1cccc2c1C(=O)c1c(O)c3c(c(O)c1C2=O)CC(O)(C(=O)CO)CC3OC1CC(N)C(O)C(C)O1 (stereo not given) + Cc1[nH]c2ccc(F)cc2c1-c1nc2c3cccnc3c3ncccc3c2[nH]1 :: t
C=CC(=O)N1CCN(c2nc(=O)n(-c3c(C)ccnc3C(C)C)c3nc(-c4c(O)cccc4F)c(F)cc23)C(C)C1 (stereo not given) + Cc1cnc(CNC(=O)c2c(=O)c3ccc(N4CCCN(C)CC4)nc3n3c2sc2ccccc23)cn1 :: f
CC1COCCN1c1cc(C2(O)CC3CCC(C2)O3)c2cnn(-c3ccn[nH]3)c2n1 (stereo not given) + Cc1[nH]c2ccc(F)cc2c1-c1nc2c3cccnc3c3ncccc3c2[nH]1 :: t
O=c1[nH]cc(F)c(=O)[nH]1 + CN(C)c1ccc(Nc2c3ccc(NC(=O)CCN4CCCC4)cc3nc3cc(NC(=O)CCN4CCCC4)ccc23)cc1 :: f
CC1COCCN1c1cc(C2(S(C)(=N)=O)CC2)nc(-c2ccnc3[nH]ccc23)n1 (stereo not given) + Cc1[nH]c2ccc(F)cc2c1-c1nc2c3cccnc3c3ncccc3c2[nH]1 :: f

GET /call?item= C=CCn1c(=O)c2cnc(Nc3ccc(N4CCN(C)CC4)cc3)nc2n1-c1cccc(C(C)(C)O)n1 + Cc1cnc(CNC(=O)c2c(=O)c3ccc(N4CCCN(C)CC4)nc3n3c2sc2ccccc23)cn1 returns the recorded outcome of this test.
f

----------
Test system: 171881-019-R-J1-PDC tumor spheroids, viability
assay remarks: Anticancer human tumor 171881-019-R-J1-PDC cell line growth inhibition [GQUAD];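 note: spheroids exposed to compounds for 7 days; 100% = DMSO vehicle control viability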
assay context: second compound 1 µM; first compound 0.0999 µM; stronger effect = lower value; spheroids with HUVEC and MSC
recorded metric: viability, T/C (%)
Numbers only, in %.

These solved cases illustrate the format of a correct answer.
CCc1c2c(nc3ccc(O)cc13)-c1cc3c(c(=O)n1C2)COC(=O)[C@]3(O)CC + CN(C)c1ccc(Nc2c3ccc(NC(=O)CCN4CCCC4)cc3nc3cc(NC(=O)CCN4CCCC4)ccc23)cc1 :: 7.94
CC[C@@]1(O)C(=O)OCc2c1cc1n(c2=O)Cc2cc3c(CN(C)C)c(O)ccc3nc2-1 + Cc1cnc(CNC(=O)c2c(=O)c3ccc(N4CCCN(C)CC4)nc3n3c2sc2ccccc23)cn1 :: 56.4
Cc1[nH]c2ccccc2c1CCNCc1ccc(/C=C/C(=O)NO)cc1 + CN(C)c1ccc(Nc2c3ccc(NC(=O)CCN4CCCC4)cc3nc3cc(NC(=O)CCN4CCCC4)ccc23)cc1 :: 0.8

Please find the next compound below.
Name the recorded viability, T/C for Cn1ncnc1[C@H]1c2n[nH]c(=O)c3cc(F)cc(c23)N[C@@H]1c1ccc(F)cc1 + CN(C)c1ccc(Nc2c3ccc(NC(=O)CCN4CCCC4)cc3nc3cc(NC(=O)CCN4CCCC4)ccc23)cc1 .
22
